Cited source for all entries: the nanobody polyreactivity screen of Harvey et al. (2022)

# Test: yeast display, Sf9 membrane polyspecificity reagent, FACS + sequencing; frameworks hold sequencing errors
Measurement type: polyreactivity (PSR sort gate)

>>> result("QVQLVETGGGLVQAGGSLGLSCDASGRIFDYYSMGWYRQATGKERELVASITRGGITYYADSVKGRFTISRDNAKNTVYLQMNSLKPEDTAVYYCADGLRWRRTYGYWGQGTQVTVSS")
"high polyreactivity"
>>> result("QVQLVESGGGLVQAGGSLRLSCAASGRIFRVNAMGWYRQAPGKERELVAAISRRGGRTYYADSVKGRFTISRDNAKNTVYLQMNSMKPEDTAVYYCNADSVTSAGSLGRAEYGYWVQGTQVTVSS")
"high polyreactivity"
